Task for the reader: assign each of the following molecules its reported area under dose-response curve.
- System: HL-60
- experiment-description: area under dose-response curve (viability, 1 nM-10 uM) (fraction (0-1)); higher = more sensitive
- stated-conditions: 72 h; co-treatment: GSK2194069 100 nM

Query string: Query the reported area under dose-response curve for HL-60; item: C[C@]12CC[C@H](O)CC1=CC[C@@H]1[C@@H]2CC[C@]2(C)C(c3cccnc3)=CC[C@@H]12 [Abiraterone]
Result string: < 0.0301

Query string: Query the reported area under dose-response curve for HL-60; item: Nc1ncnc2c1ncn2[C@@H]1O[C@H](CSCC[C@H](N)C(=O)O)[C@@H](O)[C@H]1O [S-Adenosyl Homocysteine]
Result string: < 0.0301

Query string: Query the reported area under dose-response curve for HL-60; item: O=C(O)C(Cl)Cl [Dichloroacetate]
Result string: < 0.0301

Query string: Query the reported area under dose-response curve for HL-60; item: CC(C)Cc1sc(N)nc1-c1ccc(P(=O)(O)O)o1
Result string: < 0.0301

Query string: Query the reported area under dose-response curve for HL-60; item: CCOC(=O)N1c2ccc(C(F)(F)F)cc2[C@@H](N(Cc2cc(C(F)(F)F)cc(C(F)(F)F)c2)C(=O)OC)C[C@H]1CC [Torcetrapib]
Result string: < 0.0301

Query string: Query the reported area under dose-response curve for HL-60; item: C1CCC(C(CC2CCCCN2)C2CCCCC2)CC1.O=C(O)/C=C\C(=O)O (stereo unspecified) [Perhexiline]
Result string: 0.16

###

- Tested on: Mono-Mac-6
- experiment-description: cell viability (% survival relative to DMSO control, bortezomib = 0%); higher = less cytotoxic
- stated-conditions: 100 nM; 72 h
observed-property: cell viability (%)
Give just the number in %; leave the unit off.

Query string: Any idea what its cell viability is? The molecule is C1CCC(C(CC2CCCCN2)C2CCCCC2)CC1.O=C(O)/C=C\C(=O)O (stereo not drawn) [Perhexiline]
Result string: 85.9

Query string: Any idea what its cell viability is? The molecule is Oc1cc(Cl)ccc1Oc1ccc(Cl)cc1Cl [Triclosan]
Result string: 101

Query string: Any idea what its cell viability is? The molecule is CCOC(=O)N1c2ccc(C(F)(F)F)cc2[C@@H](N(Cc2cc(C(F)(F)F)cc(C(F)(F)F)c2)C(=O)OC)C[C@H]1CC [Torcetrapib]
Result string: 107

Query string: Any idea what its cell viability is? The molecule is Clc1ccc2c(c1Cl)CNCC2
Result string: 104

Query string: Any idea what its cell viability is? The molecule is O=C(O)CCc1ccc(NCc2cccc(Oc3ccccc3)c2)cc1 [GW9508]
Result string: 108

Query string: Any idea what its cell viability is? The molecule is CCOC(=O)[C@H]1O[C@@H]1C(=O)N[C@@H](CC(C)C)C(=O)NCCC(C)C [Aloxistatin]
Result string: 104

Query string: Any idea what its cell viability is? The molecule is O=P(O)(O)C(O)(Cn1ccnc1)P(=O)(O)O [Zoledronic acid]
Result string: 91.1

Query string: Any idea what its cell viability is? The molecule is NC(=O)c1ncn([C@@H]2O[C@H](CO)[C@@H](O)[C@H]2O)n1 [Ribavirin]
Result string: 96.4

Query string: Any idea what its cell viability is? The molecule is c1ccc2c(c1)OCC(=C1NCCN1)O2 [Idazoxan]
Result string: 91.1

Query string: Any idea what its cell viability is? The molecule is C1CCc2nnc(C34CC5CC(CC(C5)C3)C4)n2CC1 [MERCK-544]
Result string: 93.3

Query string: Any idea what its cell viability is? The molecule is C#Cc1cnc(O)nc1O [Eniluracil]
Result string: 105

Query string: Any idea what its cell viability is? The molecule is OCCN1CCN(CCCN2c3ccccc3Sc3ccc(Cl)cc32)CC1 [Perphenazine]
Result string: 102

Query string: Any idea what its cell viability is? The molecule is Nc1ccn([C@@H]2O[C@H](CO)[C@@H](O)[C@@H]2O)c(=O)n1 [Cytarabine]
Result string: 79.8

Query string: Any idea what its cell viability is? The molecule is O=C(O)CC[C@H](NC(=O)c1ccc([N+](=O)[O-])cc1)C(=O)O [(S)-2-(4-Nitrobenzamido)pentanedioic acid]
Result string: 94.9

Query string: Any idea what its cell viability is? The molecule is C[C@]12O[C@H](C[C@]1(O)CO)n1c3ccccc3c3c4c(c5c6ccccc6n2c5c31)CNC4=O [Lestaurtinib]
Result string: 4.06

Query string: Any idea what its cell viability is? The molecule is CC(C)Cc1sc(N)nc1-c1ccc(P(=O)(O)O)o1
Result string: 95.2

Query string: Any idea what its cell viability is? The molecule is [N-]=[N+]=CC(=O)CC[C@H](N)C(=O)O [6-Diazo-5-oxo-L-norleucine]
Result string: 92.4

Query string: Any idea what its cell viability is? The molecule is O=C(c1ccc(OCCN2CCCCC2)cc1)c1c(-c2ccc(O)cc2)sc2cc(O)ccc12 [Raloxifene]
Result string: 107
